FYI, the data here is from ChEMBL document CHEMBL1201862.

- Tested on: SF-268
- Procedure summary: NCI tumour cell line growth inhibition, 48 h
Calls of active or inactive are those of the source. Cut-off read from the data, not from the text of the source: active = GI50 up to about 1.1 µM and inactive = higher.
Result type: GI50

The examples below pair each entry with its known result.
CCOC(=O)C1=C(N)N(c2ccccc2)/C(=C(/C#N)c2nc3ccccc3[nH]2)S1	80.9 µM (inactive)
COC(=O)C1=Cc2cc3c(cc2[C@H](c2ccc4c(c2)OCO4)C1C(=O)OC)OCO3 (stereo not given in full)	> 100 µM (inactive)
CCN(CC)C(=S)SS(=O)(=O)c1cccc(N)c1	> 100 µM (inactive)
CCCNC(=O)c1cc(OC)c(OC)cc1NC(=O)C12CC3CC(CC(C3)C1)C2	17.6 µM (inactive)
N[C@@H]1c2c(Br)sc(Br)c2[C@H](O)[C@@H]1O	> 100 µM (inactive)

Would you kindly share the measured GI50 for O=C(CCN(C(=O)O)S(=O)(=O)c1ccc(NC(=O)c2ccccc2)cc1)NC1CCCCC1 ? > 100 µM (inactive)

Follow-up item: CCC1(C(=O)OC(C)(C)C)OC12C(C)CCCC2C (stereo not given) 43.1 µM (inactive)

Please give the result for COC(=O)C1Cc2c(OC)ccc(OC)c2C(O)C1C(=O)OC (stereo not given) too. > 100 µM (inactive)

Similarly, CCN1C(NCCO)=NS(=O)(=O)c2ccccc21 ? > 100 µM (inactive)

Please do the same for Cc1cc2c(cc1C)[n+]([O-])c(C(=O)C/C(=N/NC(=O)c1ccccc1O)C(=O)Nc1ccccc1C(C)C)c(C)[n+]2[O-] as well. 68.2 µM (inactive)

CC1(C)CC(=O)C(/C(=N/NC(=S)NN)C(=O)Nc2nc3ccc([N+](=O)[O-])cc3s2)C(=O)C1 , same question. > 100 µM (inactive)

What about this compound? Brc1cc2c(cc1Br)CN(c1ccccc1)C2 > 100 µM (inactive)

Follow-up item: COc1cc([C@@H]2c3cc4c(cc3[C@@H](NC(=O)c3ccc(C(C)=O)cc3)C3COC(=O)[C@@H]32)OCO4)cc(OC)c1O (stereo not given in full) 1.09 µM (active)

Lookup Cc1cc(S(=O)(=O)[N-]/C(=N/S(=O)(=O)c2ccc(Cl)cc2)[n+]2ccc(N(C)C)cc2)c(S)cc1Cl 89.9 µM (inactive)

Proceed to COc1cc2oc(=O)cc(C)c2c(OC)c1OC > 100 µM (inactive)

* * *

- Tested on: A549
- Procedure summary: NCI tumour cell line growth inhibition, 48 h
The source made the active and inactive calls. Cut-off read from the data, not from the text of the source: active = GI50 up to about 1.1 µM and inactive = higher.
// allowed return values: class 1 for active, class 0 for inactive

# example entries with known answers
CC1(C)CCC2(C(=O)OC3OC(CO)C(O)C(O)C3O)CCC3(CO)C(=CCC4C5(C)CC(O)C(O)C(C)(C(=O)OC6OC(CO)C(O)C(O)C6O)C5CCC43C)C2C1 (centres undefined)	class 0
COC(=O)C1=C(O)C(C(=O)OC)C2CC(=O)CC1C2(C)C (centres undefined)	class 0
CCN(CC)C(=S)SS(=O)(=O)c1cccc(N)c1	class 0

Test call for this compound, please: C=C1c2nc3ccccc3n2C=C(c2ccc(OC)cc2)N1c1ccc(OCCN2CCCCC2)cc1 class 0

Input CS(=O)(=O)N1CC(CCl)c2ccc(O)cc21 (centres undefined) class 0

And then C[C@H]1CC[P+](C)(c2ccccc2)C1 (some centres undefined) , what is it? class 0

Next compound: ClCCCN(CCCCl)c1ccc(/C=N/c2cccc(Cl)c2)cc1 class 0

Please answer likewise for CCN1C(NCCO)=NS(=O)(=O)c2ccccc21 class 0

Repeat with O=S(=O)(O)c1cc(/N=[N+](\[O-])c2cc(S(=O)(=O)O)c3ccccc3c2)cc2ccccc12 class 0

Could you do the same for O=C(CCC(=O)C1CCC/C1=N/O)Nc1ccc(Cl)cc1 (centres undefined) , please? class 0

And for Nc1nc(N)c2c(Cl)c(CNc3ccc(C(=O)NC(CC(=O)O)C(=O)O)cc3)ccc2n1 (centres undefined) ? class 1

* * *

- Test system: SW-620
- Procedure summary: NCI tumour cell line growth inhibition, 48 h
The source made the active and inactive calls. Rule as the data show it: active = GI50 up to about 1.1 µM and inactive = higher.
Valid outcomes are listed here; reply with one: class 1 for active, class 0 for inactive

Cc1cc(=O)[nH]c2c1C(=O)c1c(C)cc(=O)n(C)c1C2=O	class 1
COc1cc(C[C@@]2(C)[C@@H]3CCC[C@H](CO)[C@@]3(C)CC[C@@H]2C)c(Cl)c(OC)c1	class 0
CCc1cc2c(O)c(c1)Cc1cc(CC)cc(c1O)Cc1cc(CC)cc(c1O)Cc1cc(CC)cc(c1O)Cc1cc(CC)cc(c1O)Cc1cc(CC)cc(c1O)Cc1cc(CC)cc(c1O)C2	class 0
COc1ccc(OC(C(=O)O)C(C)C)c2c1CCCC2=O (centres undefined)	class 0
O=C(NCCCCCCNCc1cccc2ccccc12)Nc1cccc2ccccc12	class 0
Cc1cc(S(=O)(=O)[N-]/C(=N/S(=O)(=O)c2ccc(Cl)cc2)[n+]2ccc(N(C)C)cc2)c(S)cc1Cl	class 0

Kindly provide the recorded test outcome for the following compound: COC(=O)C[C@H]1[C@]2(C)C3=C(C)[C@H](c4ccoc4)CC3O[C@@H]2[C@@H]2OC(=O)[C@]3(C)CCC(=O)[C@@]1(C)[C@@H]23 (some centres undefined) class 0

Moving on to CCCCN(CCCC)CCC(O)c1cc2c(Cl)cc(Cl)cc2c2cc(C(F)(F)F)ccc12 (centres undefined) class 0

Then COC(=O)CCC(=O)NC1C2CC3CC(C2)CC1C3 (centres undefined) ? class 0

* * *

- System: MOLT-4
- Procedure summary: NCI tumour cell line growth inhibition, 48 h
Calls of active or inactive are those of the source. Rule as the data show it: active = GI50 up to about 1.1 µM and inactive = higher.
Hi there, use one of these labels in your reply, thanks! active, inactive

Answered examples (5):
C/C(Cl)=N\OC(=O)Nc1ccc([N+](=O)[O-])cc1	inactive
C[C@@H]1CC[C@@]2(OC1)O[C@H]1C[C@H]3[C@@H]4CC[C@H]5C[C@@H](OC6OC(CO)C(OC7OC(CO)C(O)C(OC8OCC(O)C(O)C8O)C7OC7OC(CO)C(O)C(O)C7O)C(O)C6O)[C@H](O)C[C@]5(C)[C@H]4CC[C@]3(C)[C@H]1[C@@H]2C (stereo not given in full)	inactive
COc1cccc(/C=N/NC(=O)CN(C)C)c1O	inactive
Cc1cn(CC2=NCC(O)CN2)c(=O)[nH]c1=O (stereo not given)	inactive
CCOC(=O)/C=C(/C(=O)OCC)n1cc(C)c(=O)n(Cc2cn(COCCOC(C)=O)nn2)c1=O	inactive

Name the outcome recorded for CCOC(=O)/C(=C\c1ccnc2ccccc12)P(=O)(OCC)OCC in the assay. inactive

* * *

- Tested on: LOX IMVI
- Procedure summary: NCI tumour cell line growth inhibition, 48 h
Active and inactive are the calls of the source. Rule as the data show it: active = GI50 up to about 1.1 µM and inactive = higher.
GI50: recorded values

Here is how some molecules turned out for GI50.
O=C1CCSSCCC(=O)NCCN1	> 100 µM (inactive)
CCN(CC)CCC(=O)c1ccc(Oc2ccc(Cl)cc2)cc1	14.6 µM (inactive)
C#C/C=C\CCCC/C=C\C#CC#CCCCC#CC#C[C@H](COS(=O)(=O)O)OS(=O)(=O)O	> 100 µM (inactive)

Can you look up the measured GI50 of O=C1c2ccccc2C(=O)N1c1ccc(Cc2ccc(N3C(=O)c4ccccc4C3=O)cc2)cc1 for me? > 100 µM (inactive)

Next: O=C(NCCCCCCNCc1cccc2ccccc12)Nc1cccc2ccccc12 > 100 µM (inactive)

For CC1(O)CCC(C(C)(C)O)CC1 (configuration not stated) [TERPIN] then? > 100 µM (inactive)

Please do the same for Cc1ccc2nc(SCC(=O)N/N=C3\C(=O)Nc4ccccc43)n(-c3ccccc3)c(=O)c2c1 as well. 15.6 µM (inactive)

* * *

- System: MDA-MB-435
- Procedure summary: NCI tumour cell line growth inhibition, 48 h
The source made the active and inactive calls. Cut-off read from the data, not from the text of the source: active = GI50 up to about 1.1 µM and inactive = higher.
The reply should be one of these categories: YES for active, NO for inactive

Below, 5 compounds whose answers are already recorded.
CN(C)CCn1c(=O)c2ccc3c4c(nn3CCN(C)C)c3cc(N)ccc3n(c1=O)c24	YES
CCc1cc2c(c3c1CCCC3)CC1(Cc3ccc(C(=O)OC)cc3C1)C2 (stereo not given)	NO
Cc1ccsc1/C=N/Nc1nncc2ccccc12	NO
C=C1c2nc3ccccc3n2C=C(c2ccc(Cl)cc2)N1c1ccc(OCCN2CCCCC2)cc1	NO
CC(C)CC(=O)CC(C)[C@]1(CCCOCc2ccccc2)C(=O)N2CCC3(C[C@@]24CCC[C@H]41)OCCO3 (stereo not given in full)	NO

// outcome(item) with item = Cc1ccc2c(c1)C(=O)C1(C2)Cc2cccc(C)c2C1=O (stereo not given) NO

Same again, this time with COC1CCC(=O)N1CN(C(C)=O)c1ccc(C)cc1 (stereo not given) NO

And for CCOC(=O)OC1C(Br)C2CCC1(C)C2(C)C (stereo not given) ? NO

Moving on to the next compound: ClCCCN(CCCCl)c1ccc(/C=N/c2cccc(Cl)c2)cc1 NO

Lookup COc1ncnc2c(NC3OC(CO)C(O)C3O)ncnc12 (stereo not given) YES
